The values you see were collected from ChEMBL document CHEMBL3243941.

- Assay info: Hydrolytic stability of the compound assessed as beta-lactum ring opening rate at pH 10 at 35 degC by UV method
- Assay type: physicochemical
- Condition details: buffer
Metric: k obsd (s⁻¹)

> print(dat)
                                   compound  unit.descriptor  recorded.measurement
1  CC(=O)OCC1=C(C(=O)O)N2C(=O)[C@@H](NC(=O)Cc3cccs3)[C@H]2SC1 [CEPHALOTHIN]              s⁻¹               9.7e-05
2  O=C(COc1ccccc1)N[C@@H]1C(=O)N2C(C(=O)O)=C(Cl)CS[C@H]12              s⁻¹              0.000183
3  O=C(Cc1cccs1)N[C@@H]1C(=O)N2C(C(=O)O)=C(Cl)CS[C@H]12              s⁻¹              0.000131

[A] CC1=C(C(=O)O)N2C(=O)[C@@H](NC(=O)Cc3cccs3)[C@H]2SC1
[B] N[C@@H](C(=O)N[C@@H]1C(=O)N2C(C(=O)O)=C(Cl)CS[C@H]12)c1ccccc1 [CEFACLOR ANHYDROUS]
Query :: Between A and B , whose recorded k obsd is greater? Could you answer with the label of the item you picked?
Result :: B
